# assayed system: Yer064c (UniProt P40041)
# Sequence: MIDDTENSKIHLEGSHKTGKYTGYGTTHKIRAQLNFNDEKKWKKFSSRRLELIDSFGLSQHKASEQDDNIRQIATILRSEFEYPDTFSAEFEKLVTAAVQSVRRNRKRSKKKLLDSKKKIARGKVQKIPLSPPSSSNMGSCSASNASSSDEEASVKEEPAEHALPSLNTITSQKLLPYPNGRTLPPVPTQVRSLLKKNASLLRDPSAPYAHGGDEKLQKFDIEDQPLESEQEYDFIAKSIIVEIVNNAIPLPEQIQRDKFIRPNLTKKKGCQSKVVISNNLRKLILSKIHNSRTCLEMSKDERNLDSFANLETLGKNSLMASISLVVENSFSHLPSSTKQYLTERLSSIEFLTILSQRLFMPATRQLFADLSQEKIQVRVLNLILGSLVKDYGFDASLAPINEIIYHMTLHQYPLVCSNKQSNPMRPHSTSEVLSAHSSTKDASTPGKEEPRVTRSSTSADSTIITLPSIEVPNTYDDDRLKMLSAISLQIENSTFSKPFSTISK
# measurement description: PBM E-score (8-mer binding enrichment) (E-score (-0.5 to 0.5)); higher = stronger / more preferred TF binding
# stated conditions: protein concentration: 200 nM; construct: GST-full length
Over roughly 33,000 sequences, “E-score (-0.5 to 0.5)” has its median near -0.036; the highest 2% begin near 0.37. For the sample, the highest values were picked, then their nearest neighbours and some sequences at random.
// label = 1.0 if PBM E-score is not less than 0.2, otherwise 0.0

{"sequence record": "CGTTTCGC", "assigned class": 0.0}
{"sequence record": "AGTGACCC", "assigned class": 0.0}
{"sequence record": "AATCTTAA", "assigned class": 1.0}
{"sequence record": "CCTCATTA", "assigned class": 0.0}
{"sequence record": "AGTGATAT", "assigned class": 0.0}
{"sequence record": "TCGACTCA", "assigned class": 1.0}
{"sequence record": "ACAAGTCC", "assigned class": 0.0}
{"sequence record": "TGGGCCCA", "assigned class": 0.0}
{"sequence record": "ACTACGAT", "assigned class": 1.0}
{"sequence record": "ACTCATTC", "assigned class": 1.0}
{"sequence record": "ATTCATTC", "assigned class": 0.0}
{"sequence record": "TGCCAGCA", "assigned class": 0.0}
{"sequence record": "ACTCATTG", "assigned class": 1.0}
{"sequence record": "GCAATACC", "assigned class": 0.0}
{"sequence record": "CCGACTCG", "assigned class": 1.0}
{"sequence record": "ACTCATTA", "assigned class": 1.0}

###

# PBM E-score per entry
# assayed system: Yer064c (UniProt P40041)
# Sequence: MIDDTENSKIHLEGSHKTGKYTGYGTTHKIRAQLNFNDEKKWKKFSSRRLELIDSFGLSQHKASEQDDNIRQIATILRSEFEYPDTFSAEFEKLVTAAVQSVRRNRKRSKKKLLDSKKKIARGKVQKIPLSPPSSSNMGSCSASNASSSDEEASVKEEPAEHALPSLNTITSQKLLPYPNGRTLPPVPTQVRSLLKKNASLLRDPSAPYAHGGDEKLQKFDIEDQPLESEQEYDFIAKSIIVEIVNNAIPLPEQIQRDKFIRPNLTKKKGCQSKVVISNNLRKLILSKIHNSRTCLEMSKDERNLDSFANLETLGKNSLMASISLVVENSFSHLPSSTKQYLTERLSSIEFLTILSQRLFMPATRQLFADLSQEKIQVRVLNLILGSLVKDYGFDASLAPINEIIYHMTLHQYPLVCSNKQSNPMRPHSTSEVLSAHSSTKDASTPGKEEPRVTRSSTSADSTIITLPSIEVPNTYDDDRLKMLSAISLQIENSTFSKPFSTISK
# measurement description: PBM E-score (8-mer binding enrichment) (E-score (-0.5 to 0.5)); higher = stronger / more preferred TF binding
# stated conditions: protein concentration: 200 nM; construct: GST-full length
The full ranking holds about 33,000 sequences; the median of “E-score (-0.5 to 0.5)” is about -0.036, and the highest 2% start at about 0.37. The sample holds the highest values, similar sequences and a random draw of the others, so the mix is not that of the screen.

{"sequence record": "ACGACTGG", "PBM E-score": 0.148}
{"sequence record": "ATGACTAG", "PBM E-score": 0.48}
{"sequence record": "GGCGACCA", "PBM E-score": -0.416}
{"sequence record": "GTGACTGA", "PBM E-score": 0.447}
{"sequence record": "GGAGTCCC", "PBM E-score": 0.189}
{"sequence record": "ATGATTCA", "PBM E-score": 0.49}
{"sequence record": "AAGAGTCT", "PBM E-score": 0.355}
{"sequence record": "ATCAGGGG", "PBM E-score": -0.00776}
{"sequence record": "CCCGACTA", "PBM E-score": 0.314}
{"sequence record": "ACCAAAAA", "PBM E-score": 0.186}
{"sequence record": "TCCCCCGA", "PBM E-score": -0.176}
{"sequence record": "GCAACTAA", "PBM E-score": 0.0789}
{"sequence record": "TCGACGAA", "PBM E-score": -0.00207}
{"sequence record": "GCCATTCA", "PBM E-score": -0.0419}
{"sequence record": "CGGACTGA", "PBM E-score": 0.178}
{"sequence record": "CGCGACAA", "PBM E-score": 0.124}
{"sequence record": "CGTCGTCA", "PBM E-score": -0.142}
{"sequence record": "GCCCTAGA", "PBM E-score": -0.316}
{"sequence record": "CTTGCCAC", "PBM E-score": 0.0476}
{"sequence record": "ACGCCTAG", "PBM E-score": -0.133}
{"sequence record": "CTGCATTC", "PBM E-score": -0.0186}
{"sequence record": "CCCGTGCC", "PBM E-score": -0.103}
{"sequence record": "CGGTATAC", "PBM E-score": -0.119}
{"sequence record": "AAGATTCG", "PBM E-score": 0.205}
{"sequence record": "CGAGTCAG", "PBM E-score": 0.46}
{"sequence record": "CTGACTGC", "PBM E-score": 0.348}
{"sequence record": "GGAGTTAC", "PBM E-score": -0.0565}
{"sequence record": "CTCGACTA", "PBM E-score": 0.299}
{"sequence record": "GAGATTCA", "PBM E-score": 0.238}
{"sequence record": "ACACGTGC", "PBM E-score": -0.0356}
{"sequence record": "TGAGTCAA", "PBM E-score": 0.489}
{"sequence record": "AGGATTCG", "PBM E-score": -0.0455}
{"sequence record": "GGCGACTA", "PBM E-score": 0.402}
{"sequence record": "CGAGTCCC", "PBM E-score": 0.24}
{"sequence record": "AGTCGTCG", "PBM E-score": 0.375}
{"sequence record": "AGGATTCA", "PBM E-score": 0.24}
{"sequence record": "ATGATTCG", "PBM E-score": 0.437}
{"sequence record": "GTGATTCA", "PBM E-score": 0.474}
{"sequence record": "AGCGACCC", "PBM E-score": -0.196}

###

# assayed system: Yer064c (UniProt P40041)
# Sequence: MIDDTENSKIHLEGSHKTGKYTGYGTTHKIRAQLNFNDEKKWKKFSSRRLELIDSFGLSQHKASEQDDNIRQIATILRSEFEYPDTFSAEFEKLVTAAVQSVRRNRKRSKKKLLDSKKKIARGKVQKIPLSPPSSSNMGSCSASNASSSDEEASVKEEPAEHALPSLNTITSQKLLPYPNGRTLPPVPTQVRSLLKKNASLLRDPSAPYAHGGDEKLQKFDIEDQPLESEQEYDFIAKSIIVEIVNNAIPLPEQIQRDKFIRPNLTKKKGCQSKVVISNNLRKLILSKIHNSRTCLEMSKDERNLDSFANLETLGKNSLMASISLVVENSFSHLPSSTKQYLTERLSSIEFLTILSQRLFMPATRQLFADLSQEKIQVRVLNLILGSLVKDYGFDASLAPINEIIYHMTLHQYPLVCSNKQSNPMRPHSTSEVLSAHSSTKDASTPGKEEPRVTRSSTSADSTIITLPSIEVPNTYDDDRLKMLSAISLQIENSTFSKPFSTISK
# measurement description: PBM E-score (8-mer binding enrichment) (E-score (-0.5 to 0.5)); higher = stronger / more preferred TF binding
# stated conditions: protein concentration: 200 nM; construct: GST-full length
Whole data set: some 33,000 sequences, median “E-score (-0.5 to 0.5)” near -0.036, cut for the highest 2% near 0.37. Only a selection was taken, and the highest values are over-represented in it overall.

{"sequence record": "GGTCAATA", "assayed system": "Yer064c (UniProt P40041)", "PBM E-score": 0.108}
{"sequence record": "AGTCAATA", "assayed system": "Yer064c (UniProt P40041)", "PBM E-score": 0.383}
{"sequence record": "TGATTACA", "assayed system": "Yer064c (UniProt P40041)", "PBM E-score": 0.41}
{"sequence record": "GGACCATA", "assayed system": "Yer064c (UniProt P40041)", "PBM E-score": -0.109}
{"sequence record": "AATCAATG", "assayed system": "Yer064c (UniProt P40041)", "PBM E-score": 0.236}
{"sequence record": "CGATTACA", "assayed system": "Yer064c (UniProt P40041)", "PBM E-score": 0.101}
